# System: Total ATXN3 (tATXN3) protein
# protocol summary: Endogenous Total ATXN3 (tATXN3) Protein Assay (MSD immunoassay of cell lysates)
# Format: cell-based
# condition summary: cells incubated with compound 48 h; 7-point concentration curve; MSD detection in cell lysate
parameter measured: IC50

molecule: N[C@@H](CO)Cc1cc2nc(Cl)cc(NCc3ccco3)c2s1
val: ≤ 500 nM
//
molecule: Cc1c(C[C@H](C)N)sc2c(NCc3cccs3)cc(C#N)nc12
val: ≤ 500 nM
//
molecule: CSC[C@H](N)Cc1sc2c(NCc3ccco3)cc(Cl)nc2c1Cl
val: ≤ 500 nM
//
molecule: C[S+]([O-])C[C@H](N)Cc1sc2c(NCc3ccco3)cc(Cl)nc2c1Cl (stereo partly shown)
val: ≤ 500 nM
//
molecule: COC[C@H](N)Cc1sc2c(NCc3ccco3)cc(Cl)nc2c1Br
val: ≤ 500 nM
//
molecule: CSC[C@H](N)Cc1sc2c(NCc3ccco3)cc(Cl)nc2c1C
val: ≤ 500 nM
//
molecule: Cc1c(C[C@@H](N)[C@H](C)F)sc2c(NCc3nccs3)cc(Cl)nc12
val: ≤ 500 nM
//
molecule: Cc1c([C@H](C)[C@H](C)N)sc2c(NCc3ccco3)cc(Cl)nc12
val: ≤ 500 nM
//
molecule: Cc1c(C[C@@H](N)CCF)sc2c(NCc3cccs3)cc(Cl)nc12
val: ≤ 500 nM
//
molecule: N[C@H](Cc1sc2c(NCc3cccs3)cc(Cl)nc2c1Br)CC(F)F
val: 1000 to 1500 nM
//
molecule: C[C@H](N)Cc1sc2c(NCc3ccco3)cc(Cl)nc2c1Cl
val: ≤ 500 nM
//
molecule: N[C@@H](CF)Cc1sc2c(NCc3ccco3)cc(Cl)nc2c1Cl
val: ≤ 500 nM
//
molecule: Cc1c(C[C@H](C)N)sc2c(NCc3ccco3)cc(Cl)nc12
val: ≤ 500 nM
//
molecule: N#CC[C@H](N)Cc1sc2c(NCc3cccs3)cc(Cl)nc2c1Cl
val: ≤ 500 nM
//
molecule: N[C@@H](CCF)Cc1sc2c(NCc3ccco3)cc(Cl)nc2c1Br
val: ≤ 500 nM
//
molecule: C[C@H](N)Cc1cc2nc(Cl)cc(NCc3ccco3)c2s1
val: ≤ 500 nM
//
molecule: C[C@H](N)C(F)c1sc2c(NCc3ccco3)cc(Cl)nc2c1Br (stereo partly shown)
val: ≤ 500 nM
//
molecule: N[C@@H](CCF)Cc1sc2c(NCc3cccs3)cc(Cl)nc2c1Br
val: ≤ 500 nM
//
molecule: N[C@@H](CO)Cc1sc2c(NCc3ccco3)cc(Cl)nc2c1Cl
val: ≤ 500 nM
//
molecule: N[C@H](Cc1sc2c(NCc3ccco3)cc(Cl)nc2c1Cl)C(=O)Nc1ccccc1F
val: 500 to 1000 nM
//
molecule: C[C@H](N)Cc1sc2c(NCc3cccs3)cc(Cl)nc2c1Cl
val: ≤ 500 nM
//
molecule: N[C@@H](CF)Cc1sc2c(NCc3cccs3)cc(Cl)nc2c1Br
val: ≤ 500 nM
//
molecule: N[C@@H](CF)Cc1sc2c(NCc3cccs3)cc(Cl)nc2c1Cl
val: ≤ 500 nM
//
molecule: Cc1c(C[C@@H](N)CC#N)sc2c(NCc3cccs3)cc(Cl)nc12
val: ≤ 500 nM
//
molecule: N#CC[C@H](N)Cc1sc2c(NCc3ccco3)cc(Cl)nc2c1Br
val: ≤ 500 nM
//
molecule: Cc1c(NC[C@H](C)N)sc2c(NCc3cccs3)cc(Cl)nc12
val: 1000 to 1500 nM
//
molecule: Cc1c(C[C@@H](N)C(=O)Nc2ccncc2)sc2c(NCc3ccco3)cc(Cl)nc12
val: ≤ 500 nM
//
molecule: N[C@H](CF)Cc1sc2c(NCc3cccs3)cc(Cl)nc2c1Br
val: > 2000 nM
